assay system: von Hippel-Lindau disease tumor suppressor/Bromodomain-containing protein 9 (Homo sapiens) (UniProt Q9H8M2+P40337)
Sequence (P40337 whole entry, looked up): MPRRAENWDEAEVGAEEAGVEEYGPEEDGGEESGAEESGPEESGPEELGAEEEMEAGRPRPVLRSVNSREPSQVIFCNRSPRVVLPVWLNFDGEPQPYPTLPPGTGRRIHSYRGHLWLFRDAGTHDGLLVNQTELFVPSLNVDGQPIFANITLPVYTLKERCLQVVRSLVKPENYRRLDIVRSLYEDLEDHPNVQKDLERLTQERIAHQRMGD
Sequence (Q9H8M2 whole entry, looked up): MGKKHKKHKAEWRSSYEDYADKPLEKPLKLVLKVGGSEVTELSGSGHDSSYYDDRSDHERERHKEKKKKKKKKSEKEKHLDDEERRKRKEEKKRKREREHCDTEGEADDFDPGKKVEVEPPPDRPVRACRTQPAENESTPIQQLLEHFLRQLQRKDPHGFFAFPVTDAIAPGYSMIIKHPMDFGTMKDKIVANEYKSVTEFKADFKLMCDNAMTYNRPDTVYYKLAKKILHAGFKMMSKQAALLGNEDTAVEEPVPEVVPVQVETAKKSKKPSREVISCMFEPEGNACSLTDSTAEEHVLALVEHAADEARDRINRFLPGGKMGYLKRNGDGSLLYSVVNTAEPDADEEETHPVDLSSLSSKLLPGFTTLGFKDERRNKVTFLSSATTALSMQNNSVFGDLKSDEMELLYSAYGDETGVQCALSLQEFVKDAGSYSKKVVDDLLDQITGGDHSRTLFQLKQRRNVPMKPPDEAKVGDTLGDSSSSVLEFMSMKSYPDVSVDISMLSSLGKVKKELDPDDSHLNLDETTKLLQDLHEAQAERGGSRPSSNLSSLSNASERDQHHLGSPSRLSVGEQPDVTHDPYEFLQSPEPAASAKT
method: PROTAC activity at VHL/BRD9 in human HeLa cells assessed as remaining BRD9 protein level at 1 uM incubated for 16 hrs by Western blot analysis relative to control
Type: cell-based
parameter: Activity (%)

COc1cc(-c2cn(C)c(=O)c3cnccc23)cc(OC)c1CN1CCN(CCOCCOCCOCC(=O)N[C@H](C(=O)N2C[C@H](O)C[C@H]2C(=O)NCc2ccc(-c3scnc3C)cc2)C(C)(C)C)CC1 95

1 = COc1cc(-c2cn(C)c(=O)c3cnccc23)cc(OC)c1CN1CCN(CCOCCOCCOCCOCC(=O)N[C@H](C(=O)N2C[C@H](O)C[C@H]2C(=O)NCc2ccc(-c3scnc3C)cc2)C(C)(C)C)CC1
2 = COc1cc(-c2cn(C)c(=O)c3cnccc23)cc(OC)c1CN1CCN(CCOCCOCCOCCOCCOc2cc(-c3scnc3C)ccc2CNC(=O)[C@@H]2C[C@@H](O)CN2C(=O)[C@@H](NC(C)=O)C(C)(C)C)CC1
Query: For this pair, 1 and 2 , which shows a numerically higher Activity? Which one? Tell me its label.
Response: 2
(2: 114%, 1: 78%)
